Biological target: CB1 receptor (Rattus norvegicus, UniProt P20272)
Construct: Whole rat brains or dissected regions from live CD rats; tissue Charles River or Pel-Freez Biologicals; host or cells: whole rat brain (CD rats), P2 membrane
Sequence (P20272 whole entry): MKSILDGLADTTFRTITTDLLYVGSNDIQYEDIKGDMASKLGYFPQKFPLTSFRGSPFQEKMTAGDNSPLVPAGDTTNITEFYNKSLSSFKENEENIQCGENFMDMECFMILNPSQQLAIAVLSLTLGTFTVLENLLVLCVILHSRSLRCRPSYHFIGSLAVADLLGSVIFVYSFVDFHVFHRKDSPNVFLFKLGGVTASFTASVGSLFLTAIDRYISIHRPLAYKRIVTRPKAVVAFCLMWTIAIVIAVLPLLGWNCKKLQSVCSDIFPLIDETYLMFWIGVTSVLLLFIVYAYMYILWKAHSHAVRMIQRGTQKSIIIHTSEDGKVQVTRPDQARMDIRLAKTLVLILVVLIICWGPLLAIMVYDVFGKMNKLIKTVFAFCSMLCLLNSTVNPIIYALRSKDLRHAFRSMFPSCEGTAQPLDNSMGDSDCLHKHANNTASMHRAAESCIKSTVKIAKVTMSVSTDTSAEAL
Experiment: Radioligand displacement in whole rat brain (CB1) membrane preparations
Format: binding
Conditions: whole rat brain; 3H-CP55940; Table 4, parallel synthesis analogs, n = 1
experimental readout: Max. Disp. %, 3H-CP55940 (%)
All answers are understood in %, so give the number only.

Prompt: Observed Max. Disp. %, 3H-CP55940 on CB1 receptor (Rattus norvegicus, UniProt P20272) for `CCCCCCCCCCCCCNC(=O)c1nn(-c2ccc(Cl)cc2Cl)c(-c2ccc(Cl)cc2)c1C` , please.
Response: 79.3

Prompt: Observed Max. Disp. %, 3H-CP55940 on CB1 receptor (Rattus norvegicus, UniProt P20272) for CCC(C)CC(C)NC(=O)c1nn(-c2ccc(Cl)cc2Cl)c(-c2ccc(Cl)cc2)c1C (centres unmarked) , please.
Response: 91.4

Prompt: Observed Max. Disp. %, 3H-CP55940 on CB1 receptor (Rattus norvegicus, UniProt P20272) for `CCCCCCCCCCNC(=O)c1nn(-c2ccc(Cl)cc2Cl)c(-c2ccc(Cl)cc2)c1C` , please.
Response: 83.6

Prompt: Observed Max. Disp. %, 3H-CP55940 on CB1 receptor (Rattus norvegicus, UniProt P20272) for `CCCCCCCCCCCNC(=O)c1nn(-c2ccc(Cl)cc2Cl)c(-c2ccc(Cl)cc2)c1C` , please.
Response: 86.4

Prompt: Observed Max. Disp. %, 3H-CP55940 on CB1 receptor (Rattus norvegicus, UniProt P20272) for `CCCCCCCCCCCCNC(=O)c1nn(-c2ccc(Cl)cc2Cl)c(-c2ccc(Cl)cc2)c1C` , please.
Response: 82.6

Prompt: Observed Max. Disp. %, 3H-CP55940 on CB1 receptor (Rattus norvegicus, UniProt P20272) for CCCCCC(CC)NC(=O)c1nn(-c2ccc(Cl)cc2Cl)c(-c2ccc(Cl)cc2)c1C (centres unmarked) , please.
Response: 89.5

Prompt: Observed Max. Disp. %, 3H-CP55940 on CB1 receptor (Rattus norvegicus, UniProt P20272) for `COc1ccc(NC(=O)c2nn(-c3ccc(Cl)cc3Cl)c(-c3ccc(Cl)cc3)c2C)cc1` , please.
Response: 96.4

Prompt: Observed Max. Disp. %, 3H-CP55940 on CB1 receptor (Rattus norvegicus, UniProt P20272) for `Cc1c(C(=O)NCCC(c2ccccc2)c2ccccc2)nn(-c2ccc(Cl)cc2Cl)c1-c1ccc(Cl)cc1` , please.
Response: 90.1

====

Target: CB1 receptor (Rattus norvegicus, UniProt P20272)
Construct: Whole rat brains or dissected regions from live CD rats; tissue Charles River or Pel-Freez Biologicals; host or cells: whole rat brain (CD rats), P2 membrane
Test: Radioligand displacement in whole rat brain (CB1) membrane preparations
Assay type: binding
Conditions: Ki, displacement of 3H-WIN55212-2, whole rat brain; 3H-WIN55212-2; Table 4, parallel synthesis analogs, n = 1, concentration assumes 100% yield
Items are presented alongside their recorded Ki.

In [3]: df
Out[3]:
                                   compound  experimental_readout   result
0  Cc1c(C(=O)NC(C)CCC(C)C)nn(-c2ccc(Cl)cc2Cl)c1-c1ccc(Cl)cc1 (centres unmarked)                    Ki  28.6 nM
1  CCCCCC(CC)NC(=O)c1nn(-c2ccc(Cl)cc2Cl)c(-c2ccc(Cl)cc2)c1C (centres unmarked)                    Ki  25.8 nM

Prompt: Look at this compound and give its reported Ki. Cc1c(C(=O)NC(C)CCCC(C)C)nn(-c2ccc(Cl)cc2Cl)c1-c1ccc(Cl)cc1 (centres unmarked)
Response: 5.76 nM

Prompt: Look at this compound and give its reported Ki. `CCCCCCCCCCNC(=O)c1nn(-c2ccc(Cl)cc2Cl)c(-c2ccc(Cl)cc2)c1C`
Response: 1390 nM

Prompt: Look at this compound and give its reported Ki. `CCCCCCCCCCCNC(=O)c1nn(-c2ccc(Cl)cc2Cl)c(-c2ccc(Cl)cc2)c1C`
Response: 278 nM

Prompt: Look at this compound and give its reported Ki. `Cc1c(C(=O)N2CCC(O)(c3ccccc3)CC2)nn(-c2ccc(Cl)cc2Cl)c1-c1ccc(Cl)cc1`
Response: 69.5 nM

Prompt: Look at this compound and give its reported Ki. CCCCCC(C)NC(=O)c1nn(-c2ccc(Cl)cc2Cl)c(-c2ccc(Cl)cc2)c1C (centres unmarked)
Response: 1.84 nM

Prompt: Look at this compound and give its reported Ki. `COc1ccc(NC(=O)c2nn(-c3ccc(Cl)cc3Cl)c(-c3ccc(Cl)cc3)c2C)cc1`
Response: 30.4 nM

====

Items are presented alongside their recorded pKi.
Molecular target: human CB1 receptor (Homo sapiens)
Construct: expressed in transfected cells; host or cells: HEK-293
Test: Radioligand displacement in human CB1 receptor-transfected cells (HEK-293)
Assay type: binding
Conditions: Ki, displacement of 3H-SR141716A
Experimental: Human CB1 receptor affinity. The alkyl amide analogs of the present invention were examined using transfected cell lines expressing the human CB1 receptor (Table 3). Methods—binding assay in transfected cell lines. The methods used for performing binding assays in transfected cells expressing human CB1 or CB2 receptors are those used above. […] Data analysis. Saturation and displacement data were analyzed by unweighted nonlinear regression of receptor binding data. […]
Scale: pKi equals -log10([C]), with [C] in mol/L.

>>> df
                                   molecule                      target_entity  result_number
0  Cc1c(C(=O)NC(C)CCCC(C)C)nn(-c2ccc(Cl)cc2Cl)c1-c1ccc(Cl)cc1 (stereo not drawn) [AKS-10262-7]  human CB1 receptor (Homo sapiens)           8.68
1  CCCCCNC(=O)c1nn(-c2ccc(Cl)cc2Cl)c(-c2ccc(Cl)cc2)c1C [MF9725-67-17]  human CB1 receptor (Homo sapiens)           8.20
2  CCCCCCCCCNC(=O)c1nn(-c2ccc(Cl)cc2Cl)c(-c2ccc(Cl)cc2)c1C [MF10110-10-21]  human CB1 receptor (Homo sapiens)           7.25
3  CCCCCCCCCCNC(=O)c1nn(-c2ccc(Cl)cc2Cl)c(-c2ccc(Cl)cc2)c1C [BT-1]  human CB1 receptor (Homo sapiens)           7.61
4  CCCCCCC(C)(C)NC(=O)c1nn(-c2ccc(Cl)cc2Cl)c(-c2ccc(Cl)cc2)c1C [MF10110-119-11]  human CB1 receptor (Homo sapiens)           8.30
5  CCCCCC(C)NC(=O)c1nn(-c2ccc(Cl)cc2Cl)c(-c2ccc(Cl)cc2)c1C (stereo not drawn) [AKS-10262-1]  human CB1 receptor (Homo sapiens)           8.69

Prompt: Look at this molecule and give its reported pKi. CCCCCCCCNC(=O)c1nn(-c2ccc(Cl)cc2Cl)c(-c2ccc(Cl)cc2)c1C [MF9879-164-28]
Response: 7.35

Prompt: Look at this molecule and give its reported pKi. CCCCCCC(C)NC(=O)c1nn(-c2ccc(Cl)cc2Cl)c(-c2ccc(Cl)cc2)c1C (stereo not drawn) [AKS-10262-4]
Response: 8.55

Prompt: Look at this molecule and give its reported pKi. CCCCCCCNC(=O)c1nn(-c2ccc(Cl)cc2Cl)c(-c2ccc(Cl)cc2)c1C [MF9725-133-25]
Response: 8.03

====

Items are presented alongside their recorded Max. Disp. %, 3H-CP55940.
Target: human CB1 receptor (Homo sapiens, UniProt P21554)
Construct: expressed in transfected cells; host or cells: HEK-293
Sequence (P21554 whole entry): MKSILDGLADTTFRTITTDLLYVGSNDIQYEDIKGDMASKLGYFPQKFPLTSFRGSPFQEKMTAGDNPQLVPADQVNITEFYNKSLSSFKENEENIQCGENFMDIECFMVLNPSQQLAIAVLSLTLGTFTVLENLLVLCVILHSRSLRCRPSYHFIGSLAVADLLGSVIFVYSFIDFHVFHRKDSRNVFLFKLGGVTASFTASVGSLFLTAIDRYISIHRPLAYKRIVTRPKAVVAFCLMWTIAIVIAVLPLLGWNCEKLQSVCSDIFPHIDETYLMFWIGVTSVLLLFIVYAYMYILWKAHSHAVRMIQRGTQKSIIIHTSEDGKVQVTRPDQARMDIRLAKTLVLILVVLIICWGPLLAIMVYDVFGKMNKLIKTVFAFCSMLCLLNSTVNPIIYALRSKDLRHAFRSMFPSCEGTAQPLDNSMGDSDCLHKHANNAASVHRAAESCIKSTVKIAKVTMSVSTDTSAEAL
Assay: Radioligand displacement in human CB1 receptor-transfected cells (HEK-293)
Type: binding
Details: human CB1 transfected cells; radioligand 3H-CP55940; Table 3
All answers are understood in %, so give the number only.

In [3]: df
Out[3]:
                                   compound  readout_units  result_number
0  CCCCCCNC(=O)c1nn(-c2ccc(Cl)cc2Cl)c(-c2ccc(Cl)cc2)c1C [MF9725-132-25]              %           85.6
1  Cc1c(C(=O)NCC(C)C)nn(-c2ccc(Cl)cc2Cl)c1-c1ccc(Cl)cc1 [MF9725-68-10]              %           70.1
2  CCNC(=O)c1nn(-c2ccc(Cl)cc2Cl)c(-c2ccc(Cl)cc2)c1C [MF9725-54C]              %           66.7
3  Cc1c(C(=O)NC(C)C)nn(-c2ccc(Cl)cc2Cl)c1-c1ccc(Cl)cc1 [MF9725-65-11]              %           85.4
4  CCCNC(=O)c1nn(-c2ccc(Cl)cc2Cl)c(-c2ccc(Cl)cc2)c1C [MF9725-55C]              %           81.9

Prompt: Look at this compound and give its reported Max. Disp. %, 3H-CP55940. Cc1c(C(=O)NC2CCCCC2)nn(-c2ccc(Cl)cc2Cl)c1-c1ccc(Cl)cc1 [MF9725-66-11]
Response: 92.3

Prompt: Look at this compound and give its reported Max. Disp. %, 3H-CP55940. CCOC(=O)c1nn(-c2ccc(Cl)cc2Cl)c(-c2ccc(Cl)cc2)c1C [SH9631-56]
Response: 91.0

Prompt: Look at this compound and give its reported Max. Disp. %, 3H-CP55940. CCCCNC(=O)c1nn(-c2ccc(Cl)cc2Cl)c(-c2ccc(Cl)cc2)c1C [MF9725-64-17]
Response: 90.2
